Recorded % Inhibition for the following compounds
# System: Plasmodium falciparum
# Experiment Summary: Primary screen in NF54 nanoGlo assay, in single point, at 2uM, 72h
# Format: functional, Erythrocyte
# Reported Conditions: timepoint 72 hour
Screen size: about 150,000 compounds; about 540 (0.36%) showed an effect of 50% or more. What follows is part of a selection rich in strong results, with near analogues and random picks from the rest.
Quick note: give the figure in %, leave out the unit.

Guide cases for % Inhibition, answers given:
* O=C1N(CC2CCCCC2)CCC[C@@]1(O)CN1CCOCC1 | -7
* O=C(CN1C(=O)N[C@]2(CCc3cc(Cl)ccc32)C1=O)c1ccc2c(c1)OCO2 | 0
* CN1C[C@@H](N)C[C@H]1c1nc(COc2ccc(F)cc2)nn1CC(F)(F)F | 1
* CCc1cccc(C)c1NC(=O)Cn1cc(-c2ccccc2)c2ncn(CC)c(=O)c21 | 4
* Cc1ccc(S(=O)(=O)c2c(N)n(-c3ccc4c(c3)OCCO4)c3nc4ccccc4nc23)cc1 | 6
* COc1ccc(CC(=O)Nc2cc(C)n(-c3cccc(Cl)c3)n2)cc1 | 80
* COCCCN(Cc1ccco1)C[C@H](O)COC(C)(C)C | 2
* COc1ccc(C(=O)N(C(=O)c2ccc(OC)cc2)c2c3c(nc4ccccc24)CCCC3)cc1 | 69

Ask | Dear colleague, I am looking for the recorded % Inhibition of the following compound: `CCOC(=O)C1(C(=O)NCc2cc(C)on2)CCCC1`
Reply | 7

Ask | Same again, this time with `COc1ccc(CC(=O)N2C3COCC2C3)nc1`
Reply | 33

###

# System: Plasmodium falciparum
# Experiment Summary: Primary screen in NF54 nanoGlo assay, in single point, at 2uM, 72h
# Format: functional, Erythrocyte
# Reported Conditions: timepoint 72 hour
The whole screen tested about 150,000 compounds, of which about 540 (0.36%) showed an effect of 50% or more. For the sample, strong results were picked, then their nearest neighbours and some compounds at random.
Readout Label: % Inhibition (%)
Write the number in % without appending the unit.

Here is how some molecules turned out for % Inhibition.
- O=C(CNC(=O)OCc1ccccc1)Nc1ccc(F)cc1: 37
- CC(C)c1cc(NCCCn2ccnn2)nc(N)n1: -5
- Cc1c(-c2nn(-c3ccccc3)c(-c3cnn(C)c3C)c2Cl)cnn1C: 39
- Cc1nc(NC(=O)CC2=CCCCC2)n(C)n1: 5
- O=C1c2ccccc2C(=O)N1Cc1cnc(N2CCCCC2)s1: 45
- Cc1cc[n+]2c(-c3ccccc3)cc(-c3ccccc3)nc2c1: 60
- CCn1c(=O)sc2cc(NC(=O)c3ccc(C)cc3)ccc21: 5
- Cc1ccc(-c2nc(CC(=O)N3CCC(C(C)(C)C)C(O)C3)cs2)o1 (configuration not stated): -3
- COc1ccccc1COC(=O)Nc1c(C)nn(C)c1Cl: 2
- CCc1cc(C(=O)N2CC[C@@]3(CCCN(Cc4cccc(OC)c4)C3)C2)on1: -5

Ask | Dear colleague, I am looking for the recorded % Inhibition of the following molecule: `N#CCc1ncc(CCN2C(=O)c3ccccc3C2=O)s1`
Reply | 51

Ask | What would you report for `CCOc1ccc(N2C[C@@H](C(=O)NCCc3ccco3)CC2=O)cc1` ?
Reply | 0

###

Recorded % Inhibition values for a group of molecules are listed next.
# System: Plasmodium falciparum
# Experiment Summary: Primary screen in NF54 nanoGlo assay, in single point, at 2uM, 72h
# Type: functional, Erythrocyte
# Reported Conditions: timepoint 72 hour
Screen size: about 150,000 compounds; about 540 (0.36%) showed an effect of 50% or more. For the sample, strong results were picked, then their nearest neighbours and some compounds at random.
// note: answer is a bare numeric in %

Use the examples below as a reference point.
• O=C(NCC(O)c1ccccc1Cl)C1CCCN1 (stereo not given) = 1
• O=C(Nc1c(S(=O)(=O)c2ccccc2)c2nc3ccccc3nc2n1CCc1ccccc1)c1ccc(Cl)cc1 = 101
• CC(=O)Nc1ccccc1CN(Cc1ccc(F)cc1F)C1CC1 = 9
• FC(F)(F)c1ccnc(Nc2ccc3c(c2)OCO3)n1 = -4
• COCCCn1c(NS(=O)(=O)c2ccc3ccccc3c2)c(S(=O)(=O)c2ccc(C)cc2)c2nc3ccccc3nc21 = 57
• Cc1cc(C)cc(CCNC(=O)CN(C)S(C)(=O)=O)c1 = -4

Ask | Any idea what % Inhibition was measured for `CC[C@H](C)[C@@H](CN(C)C)NC(=O)CCc1ccncc1` ?
Reply | 20

Ask | Another molecule to look at: `Cc1ccc(CNC[C@H](O)c2cccnc2)c(Br)c1`
Reply | 7

Ask | Now consider `CCCCc1ccc(-n2c(NS(=O)(=O)c3ccc(Cl)cc3)c(S(=O)(=O)c3ccc(C)cc3)c3nc4ccccc4nc32)cc1` .
Reply | 4

Ask | Try this molecule next: `CCCCN(C(=O)Nc1nc2ccccc2s1)C1CC1`
Reply | -5
